# system_name: T1, 4H3016-AA
# T1 chain: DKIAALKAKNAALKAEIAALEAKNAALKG
# procedure_text: two-hybrid library CCmax;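 further: natural log of median RNA to DNA barcode read ratio; higher means stronger binding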
# condition_label: mean of both orientations
quantity: interaction score

{"binder": "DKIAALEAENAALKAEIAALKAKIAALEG [4H2253-AA]", "quantity": "interaction score", "measured_result": -0.709}

I = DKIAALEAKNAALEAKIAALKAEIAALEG [4H2473-AA]
II = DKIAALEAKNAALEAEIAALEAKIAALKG [4H2438-AA]
III = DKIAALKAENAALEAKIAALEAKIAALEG [4H2725-AA]
IV = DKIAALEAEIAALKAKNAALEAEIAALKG [4H2162-AA]
Asked: List these items ordered by interaction score, big to small. Answer with the labels in sequence, matching the requested order.
Given back: I, III, II, IV
(I: 1.52, III: -0.188, II: -0.613, IV: -2.12)

P = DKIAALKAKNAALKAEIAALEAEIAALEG [4H3009-AA]
Q = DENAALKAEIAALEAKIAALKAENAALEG [4H1579-AA]
Asked: Kindly identify which of P and Q has the larger recorded interaction score value. Kindly give the label for the entry you pick.
Given back: Q
(Q: 0.0969, P: -1.16)

Taken from paper PMC10397247.
